Origin of the recorded values: paper PMC10605077

Measured inhibition at 18 µM of individual entries
Tested on: HIV-1IIIB (X4)
Test: Anti-HIV activity in infected TZM-bl cells (luciferase), pre- and post-infection treatment
Format: cell-based, Human Immunodeficiency Virus Type 1 (HIV-1)
Settings: Human immunodeficiency virus 1, TZM-bl, 18 µM, TZM-bl cells; read-out: Percentage inhibition of HIV-1IIIB (X4 strain) replication
property name: inhibition at 18 µM (%)

C[N+](C)(C)CCc1cc(Br)c(O)c(Br)c1: 39.2
COc1c(Br)cc(CC[N+](C)(C)C)cc1Br: -3.1
C[N+](C)(C)CCc1cc(Cl)c(O)c(Cl)c1: 41
CN(C)[C@@H](Cc1cc(Br)c(O)c(Br)c1)C(=O)O: -1.3
C[N+](C)(C)[C@@H](Cc1cc(Br)c(O)c(Br)c1)C(=O)O: 2.7
COc1c(Br)cc(C[C@@H](C(=O)O)N(C)C)cc1Br: 22.2
C[N+](C)(C)[C@@H](Cc1cc(Cl)c(O)c(Cl)c1)C(=O)O: -111
COc1c(Cl)cc(C[C@@H](C(=O)O)N(C)C)cc1Cl: -18.5
CN(C)[C@@H](Cc1cc(Cl)c(O)c(Cl)c1)C(=O)O: -4.8
COc1c(Cl)cc(C[C@@H](C(=O)O)[N+](C)(C)C)cc1Cl: -1.3
COc1c(Cl)cc(CC[N+](C)(C)C)cc1Cl: 3.2
COc1c(Br)cc(C[C@@H](C(=O)O)[N+](C)(C)C)cc1Br: 12
